target: p110α/p85α (Homo sapiens (Human), UniProt P42336); test: PI 3-Kinase (human) HTRF assay, p110α/p85α; type: biochemical; settings: read-out: PI3K α In Vitro IC50
Sequence (P42336 whole entry): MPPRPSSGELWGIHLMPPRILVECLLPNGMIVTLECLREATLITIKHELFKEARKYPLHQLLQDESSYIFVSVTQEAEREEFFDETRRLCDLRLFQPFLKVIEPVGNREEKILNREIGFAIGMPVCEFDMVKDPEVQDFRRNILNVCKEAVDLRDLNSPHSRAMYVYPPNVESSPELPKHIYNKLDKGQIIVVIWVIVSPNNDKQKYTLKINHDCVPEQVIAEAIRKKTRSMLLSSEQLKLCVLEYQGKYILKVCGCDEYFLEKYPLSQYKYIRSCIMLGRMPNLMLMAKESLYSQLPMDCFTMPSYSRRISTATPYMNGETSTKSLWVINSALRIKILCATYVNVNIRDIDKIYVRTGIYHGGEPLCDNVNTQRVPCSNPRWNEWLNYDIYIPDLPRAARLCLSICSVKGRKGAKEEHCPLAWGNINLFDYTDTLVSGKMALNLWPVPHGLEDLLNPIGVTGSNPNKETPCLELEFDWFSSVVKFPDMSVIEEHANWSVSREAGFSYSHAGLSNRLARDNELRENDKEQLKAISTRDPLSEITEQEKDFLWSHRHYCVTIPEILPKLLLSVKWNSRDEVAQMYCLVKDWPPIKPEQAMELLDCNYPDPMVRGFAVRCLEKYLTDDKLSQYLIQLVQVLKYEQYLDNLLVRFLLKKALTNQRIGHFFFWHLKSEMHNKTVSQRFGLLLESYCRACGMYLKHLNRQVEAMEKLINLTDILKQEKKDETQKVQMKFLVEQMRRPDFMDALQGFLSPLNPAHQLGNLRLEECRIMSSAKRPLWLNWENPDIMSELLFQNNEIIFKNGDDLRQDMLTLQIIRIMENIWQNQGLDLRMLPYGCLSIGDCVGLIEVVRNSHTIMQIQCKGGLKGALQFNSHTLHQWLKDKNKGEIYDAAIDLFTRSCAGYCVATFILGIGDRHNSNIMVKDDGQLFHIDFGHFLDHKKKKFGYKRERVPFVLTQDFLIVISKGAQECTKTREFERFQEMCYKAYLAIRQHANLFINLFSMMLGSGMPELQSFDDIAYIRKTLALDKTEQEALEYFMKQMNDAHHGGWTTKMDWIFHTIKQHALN
Sequence (P27986 whole entry partner): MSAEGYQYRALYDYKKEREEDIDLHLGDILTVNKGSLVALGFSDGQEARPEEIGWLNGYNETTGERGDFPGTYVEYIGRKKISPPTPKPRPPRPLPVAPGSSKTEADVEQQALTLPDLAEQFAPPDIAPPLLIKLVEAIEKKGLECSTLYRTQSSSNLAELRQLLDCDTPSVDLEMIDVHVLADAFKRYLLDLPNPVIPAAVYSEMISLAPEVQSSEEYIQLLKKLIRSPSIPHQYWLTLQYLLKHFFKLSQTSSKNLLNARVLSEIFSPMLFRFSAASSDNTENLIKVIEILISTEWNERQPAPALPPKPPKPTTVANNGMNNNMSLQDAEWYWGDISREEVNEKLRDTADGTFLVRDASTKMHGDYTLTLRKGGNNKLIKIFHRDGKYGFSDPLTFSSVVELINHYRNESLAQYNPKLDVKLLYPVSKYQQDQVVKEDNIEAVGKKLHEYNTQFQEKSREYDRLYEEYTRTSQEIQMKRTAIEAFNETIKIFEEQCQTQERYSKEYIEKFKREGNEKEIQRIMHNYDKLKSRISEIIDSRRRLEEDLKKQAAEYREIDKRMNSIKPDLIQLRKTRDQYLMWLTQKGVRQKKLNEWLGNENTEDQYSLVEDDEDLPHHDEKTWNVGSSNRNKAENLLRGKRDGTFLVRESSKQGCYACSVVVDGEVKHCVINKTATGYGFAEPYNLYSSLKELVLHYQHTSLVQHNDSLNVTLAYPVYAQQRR
Metric Name: IC50

[
  {
    "Substance Smiles": "C[C@H]1COCCN1C(=O)c1cnc2ccc(-c3ccc4oc(N)nc4c3)cn12",
    "Study Target": "p110α/p85α (Homo sapiens (Human), UniProt P42336)",
    "Metric Name": "IC50",
    "Value Reported": "< 100 nM"
  },
  {
    "Substance Smiles": "CNS(=O)(=O)c1cncc(-c2ccc3ncc(C(=O)N4CCOCC4)n3c2)c1",
    "Study Target": "p110α/p85α (Homo sapiens (Human), UniProt P42336)",
    "Metric Name": "IC50",
    "Value Reported": "< 10000 nM"
  },
  {
    "Substance Smiles": "O=C(c1cnc2ccc(-c3ccc(Cl)c(NS(=O)(=O)c4ccc(F)cc4F)c3)cn12)N1CCOCC1",
    "Study Target": "p110α/p85α (Homo sapiens (Human), UniProt P42336)",
    "Metric Name": "IC50",
    "Value Reported": "< 1000 nM"
  },
  {
    "Substance Smiles": "Nc1nc2cc(-c3ccc4ncc(C(=O)N5CC6(C5)OCCO6)n4c3)ccc2o1",
    "Study Target": "p110α/p85α (Homo sapiens (Human), UniProt P42336)",
    "Metric Name": "IC50",
    "Value Reported": "< 100 nM"
  }
]
